Assay: Stability in simulated gastric fluid
Format: in vitro ADME
Settings: 2 μM, 37° C., pH 1.5, 24 h
Where a SMILES comes first, the peptide text is derived from it. [ ]: non-standard residue; d: D form. ξ: configuration not given here. ξαMeBip(2'-Et,4'-OMe) = CCc1cc(OC)ccc1-c1ccc(CC(C)(N)C(=O)O)cc1; ξBip(2'-Et-4'-OMe) = CCc1cc(OC)ccc1-c1ccc(CC(N)C(=O)O)cc1; ξαMe(hhPhe) = CC(N)(CCCc1ccccc1)C(=O)O; ξαMePhe(2-F) = CC(N)(Cc1ccccc1F)C(=O)O; ξhhPhe = NC(CCCc1ccccc1)C(=O)O; ξαMeD = CC(N)(CC(=O)O)C(=O)O; ξαMeS = CC(N)(CO)C(=O)O
// reported % degradation in 24 h when incubated with simulated gastric fluid for each item listed
quantity measured: % degradation in 24 h when incubated with simulated gastric fluid (%)

compound	numeric readout
CCc1cc(OC)ccc1-c1ccc(CC(C)(NC(=O)C(C)(CC(=O)O)NC(=O)[C@H](CO)NC(=O)[C@@H](NC(=O)[C@H](Cc2ccccc2)NC(=O)[C@@H](NC(=O)CNC(=O)[C@H](CCC(=O)O)NC(=O)[C@H](C)NC(=O)[C@H](Cc2c[nH]cn2)NC(=O)[C@@H](N)C(C)C)[C@@H](C)O)[C@@H](C)O)C(=O)NC(CCCc2ccccc2)C(N)=O)cc1 (some centres unmarked) [compound 62] (H-VHAEGTFTS[ξαMeD][ξαMeBip(2'-Et,4'-OMe)][ξhhPhe]-NH2)	00
CCc1cc(OC)ccc1-c1ccc(CC(NC(=O)[C@H](CC(=O)O)NC(=O)[C@H](CO)NC(=O)[C@@H](NC(=O)C(C)(Cc2ccccc2F)NC(=O)[C@@H](NC(=O)CNC(=O)[C@H](CCC(N)=O)NC(=O)[C@H](C)NC(=O)[C@H](Cc2c[nH]cn2)NC(=O)[C@@H](N)C(C)C)[C@@H](C)O)[C@@H](C)O)C(=O)NC(C)(CCCc2ccccc2)C(N)=O)cc1 (some centres unmarked) [compound 92] (H-VHAQGT[ξαMePhe(2-F)]TSD[ξBip(2'-Et-4'-OMe)][ξαMe(hhPhe)]-NH2)	55
CCc1cc(OC)ccc1-c1ccc(CC(C)(NC(=O)[C@H](CC(=O)O)NC(=O)C(C)(CO)NC(=O)[C@@H](NC(=O)[C@H](Cc2ccccc2)NC(=O)[C@@H](NC(=O)CNC(=O)[C@H](CCC(=O)O)NC(=O)[C@H](C)NC(=O)[C@H](Cc2c[nH]cn2)NC(=O)[C@@H](N)C(C)C)[C@@H](C)O)[C@@H](C)O)C(=O)NC(CCCc2ccccc2)C(N)=O)cc1 (some centres unmarked) [compound 38] (H-VHAEGTFT[ξαMeS]D[ξαMeBip(2'-Et,4'-OMe)][ξhhPhe]-NH2)	00
CCc1cc(OC)ccc1-c1ccc(CC(C)(NC(=O)C(C)(CC(=O)O)NC(=O)[C@H](CO)NC(=O)[C@@H](NC(=O)[C@H](Cc2ccccc2)NC(=O)[C@@H](NC(=O)CNC(=O)[C@H](CCC(N)=O)NC(=O)[C@H](C)NC(=O)[C@H](Cc2c[nH]cn2)NC(=O)[C@@H](N)C(C)C)[C@@H](C)O)[C@@H](C)O)C(=O)NC(CCCc2ccccc2)C(N)=O)cc1 (some centres unmarked) [compound 58] (H-VHAQGTFTS[ξαMeD][ξαMeBip(2'-Et,4'-OMe)][ξhhPhe]-NH2)	11
CCc1cc(OC)ccc1-c1ccc(CC(C)(NC(=O)C(C)(CC(=O)O)NC(=O)[C@H](CO)NC(=O)[C@@H](NC(=O)C(C)(Cc2ccccc2F)NC(=O)[C@@H](NC(=O)CNC(=O)[C@H](CCC(=O)O)NC(=O)[C@H](CO)NC(=O)[C@H](Cc2c[nH]cn2)NC(=O)[C@@H](N)C(C)C)[C@@H](C)O)[C@@H](C)O)C(=O)NC(CCCc2ccccc2)C(N)=O)cc1 (some centres unmarked) [compound 69] (H-VHSEGT[ξαMePhe(2-F)]TS[ξαMeD][ξαMeBip(2'-Et,4'-OMe)][ξhhPhe]-NH2)	14
